B1: TPR 5TU (parent)
chain: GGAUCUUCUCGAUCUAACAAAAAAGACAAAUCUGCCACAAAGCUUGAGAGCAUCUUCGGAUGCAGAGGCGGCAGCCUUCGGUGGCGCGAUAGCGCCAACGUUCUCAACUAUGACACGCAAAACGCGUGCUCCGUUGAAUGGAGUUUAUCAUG

variants of: B1; experiment: polymerase ribozyme fitness, log enrichment relative to wild type (log ratio); higher = more active; in vitro selection for triplet polymerase activity
This sample holds only a part of the variants without activity.
ENDPOINT: polymerase ribozyme fitness (log ratio)
Enter the number alone.

**Query** Which measured polymerase ribozyme fitness (log ratio) value corresponds to G62U U102A ?
**Result** -1.64

**Query** Which measured polymerase ribozyme fitness (log ratio) value corresponds to A20U C57G C93U C123U ?
**Result** -2.57

**Query** Which measured polymerase ribozyme fitness (log ratio) value corresponds to A19U C69U G92C G126C ?
**Result** -1.04

**Query** Which measured polymerase ribozyme fitness (log ratio) value corresponds to A60G C75G ?
**Result** -2.36

**Query** Which measured polymerase ribozyme fitness (log ratio) value corresponds to C36G G83U C125A G141C U145A ?
**Result** -4.09

**Query** Which measured polymerase ribozyme fitness (log ratio) value corresponds to A21U C69U C87U C96A ?
**Result** -1.14

**Query** Which measured polymerase ribozyme fitness (log ratio) value corresponds to A49G A60G C85U ?
**Result** -0.602

**Query** Which measured polymerase ribozyme fitness (log ratio) value corresponds to C85A C99A ?
**Result** -2.8

**Query** Which measured polymerase ribozyme fitness (log ratio) value corresponds to A119G U146A ?
**Result** -0.399

**Query** Which measured polymerase ribozyme fitness (log ratio) value corresponds to G92U C96A G136C ?
**Result** -3.56

**Query** Which measured polymerase ribozyme fitness (log ratio) value corresponds to C96A C125A ?
**Result** -0.718

**Query** Which measured polymerase ribozyme fitness (log ratio) value corresponds to A37C C38G C85U ?
**Result** -1.28

**Query** Which measured polymerase ribozyme fitness (log ratio) value corresponds to G141C A150G ?
**Result** -3.78

**Query** Which measured polymerase ribozyme fitness (log ratio) value corresponds to C27U G62A A97U A98C ?
**Result** -3.33

**Query** Which measured polymerase ribozyme fitness (log ratio) value corresponds to U6G C85U ?
**Result** -0.35
